- Tested on: T-47D breast
- ASSAY NOTES: NCI tumour cell line growth inhibition, 48 h
QUANTITY MEASURED: TGI

Field: example entries. Status: answers known.
- COMPOUND: "NC(=O)c1cc2ccc(O)cc2o/c1=N/NC(=O)c1ccccc1"
  TARGET SYSTEM: "T-47D breast"
  TGI: "91.4 µM"
- COMPOUND: "NC[C@H]1Nc2ccccc2[C@@H](O)C1O (some centres undefined)"
  TARGET SYSTEM: "T-47D breast"
  TGI: "> 100 µM"
- COMPOUND: "CN1C/C(=C\\c2cccs2)C2=NN(C)C(c3cccs3)C2C1 (centres undefined)"
  TARGET SYSTEM: "T-47D breast"
  TGI: "> 100 µM"
- COMPOUND: "CC1C/C(=C\\c2ccc(OC(=O)C(C)(C)C)cc2)C(=O)/C(=C/c2ccc(OC(=O)C(C)(C)C)cc2)C1 (centres undefined)"
  TARGET SYSTEM: "T-47D breast"
  TGI: "> 100 µM"
- COMPOUND: "CCCCCCCCCCCCCCCCCCN(C)C(COC)COP(=O)([O-])OCC[N+](C)(C)C (centres undefined)"
  TARGET SYSTEM: "T-47D breast"
  TGI: "34.1 µM"
- COMPOUND: "Cc1cc(O)cc2c1[C@]1(C)CCC3C(C)(C)CCC[C@]3(C)[C@H]1C2 (some centres undefined)"
  TARGET SYSTEM: "T-47D breast"
  TGI: "43.3 µM"

Dear colleague, please send me the reported TGI for CC1(C)CC2=C(Sc3ccccc3N2)C(=O)C1C(=O)C(=O)Nc1cccc([N+](=O)[O-])c1 (centres undefined) when you can.
> 100 µM

Complete the entry with TGI for O=C1c2ccccc2CN1c1ccc(OCCN2CCCCC2)cc1
> 10 µM

Quote TGI reported for Cc1n[nH]c(=O)n1/N=C/c1ccc(F)cc1 please.
> 100 µM

* * *

- Tested on: UO-31 renal
- ASSAY NOTES: NCI tumour cell line growth inhibition, 48 h; in the data active = GI50 below about 0.43 µM; inactive = the rest
Field 'call' accepts active, inactive

A selection of reference data follows.
- COMPOUND: "CC(C)C[C@H](NC(=O)Cn1ccc(NCc2ccccc2)cc1=O)B(O)O"
  TARGET SYSTEM: "UO-31 renal"
  ASSIGNED CLASS: "inactive"
- COMPOUND: "C=C1C(=O)O[C@H]2[C@H]1CC/C(COC(=O)C(=O)c1cn(C)c3ccc(Cl)cc13)=C\\CC[C@@]1(C)O[C@@H]21"
  TARGET SYSTEM: "UO-31 renal"
  ASSIGNED CLASS: "inactive"
- COMPOUND: "O=C1NC(=O)C(c2ccccc2Cl)=C1Nc1cc(Cl)c(O)c(Cl)c1"
  TARGET SYSTEM: "UO-31 renal"
  ASSIGNED CLASS: "inactive"
- COMPOUND: "Cc1ccc(NC2=C(Cl)C(=O)N(Cc3ccc(Cl)cc3)C2=O)cc1O"
  TARGET SYSTEM: "UO-31 renal"
  ASSIGNED CLASS: "inactive"

Short answer needed: outcome of this test for CS(=O)(=O)CCNCc1ccc(-c2ccc3ncnc(Nc4ccc(OCc5ccccc5)c(Br)c4)c3c2)o1 ?
inactive

* * *

- System: HOP-92 NSCLC
- ASSAY NOTES: NCI tumour cell line growth inhibition, 48 h
QUANTITY MEASURED: log10 of TGI (log10 of the value in µM)
Remember, log10 of TGI, in µM.

The following compounds have reported results that may help.
- COMPOUND: "CCCCCCCCCCCCCCCCCCN(C)C(COC)COP(=O)([O-])OCC[N+](C)(C)C (centres undefined)"
  log10 of TGI: 0.71
- COMPOUND: "COc1ccc(-c2cc(-c3cccn3C)c(C#N)c(=O)[nH]2)cc1OC"
  log10 of TGI: 0.99
- COMPOUND: "C=C(C#N)C1OCC2OC(C)(C)OC21 (centres undefined)"
  log10 of TGI: 1.64
- COMPOUND: "Nc1nc(N)c2cc(-c3ccccc3)cnc2n1"
  log10 of TGI: 1.48
- COMPOUND: "CS(=O)(=O)CCNCc1ccc(-c2ccc3ncnc(Nc4ccc(OCc5ccccc5)c(Br)c4)c3c2)o1"
  log10 of TGI: 1.10
- COMPOUND: "Cc1cccc2c1C(=O)[C@](C)([C@]1(C)Nc3cccc(C)c3C1=O)N2"
  log10 of TGI: 1.88

Then this compound:
// fetch log10 of TGI; item: N#Cc1ccc2c(c1)C(=O)c1c-2n(CCCCl)c(=O)c2cc([N+](=O)[O-])ccc12 ; system: HOP-92 NSCLC
1.36

* * *

- Test system: OVCAR-8 ovarian
- ASSAY NOTES: NCI tumour cell line growth inhibition, 48 h
TGI for assorted molecules

Check out these entries, answers already filled in.
- MOLECULE: "O=C(O)CCCSc1ccccc1"
  QUANTITY MEASURED: "TGI"
  RECORDED VALUE: "> 100 µM"
- MOLECULE: "CN1C/C(=C\\c2cccs2)C2=NN(C)C(c3cccs3)C2C1 (centres undefined)"
  QUANTITY MEASURED: "TGI"
  RECORDED VALUE: "> 100 µM"
- MOLECULE: "CCCC[C@H]1[C@@H](OCOc2ccccc2)COC(=O)N1[C@H](C)c1ccccc1"
  QUANTITY MEASURED: "TGI"
  RECORDED VALUE: "> 100 µM"
- MOLECULE: "O=C(CC(C(=O)c1cccs1)c1cccs1)c1ccsc1 (centres undefined)"
  QUANTITY MEASURED: "TGI"
  RECORDED VALUE: "> 100 µM"
- MOLECULE: "CC(C)(C)OCC1NC(=O)[C@@H]2Cc3c([nH]c4ccccc34)C(c3ccccc3)N2C1=O (some centres undefined)"
  QUANTITY MEASURED: "TGI"
  RECORDED VALUE: "> 50 µM"

Output TGI of C#CC1(OC(C)=O)CCC2C3CC=C4C=C(OC(C)=O)CCC4(C)C3CCC21C (centres undefined)
46.3 µM

Fill in reported TGI for this entry: O=S(=O)(NCCCNc1nccc(-c2c(-c3ccc(F)c(O)c3)nc3sccn23)n1)c1ccc(F)cc1
> 100 µM

Supply reported TGI belonging to this molecule: NC(=O)CCC(Nc1c2ccccc2nc2ccccc12)C(=O)O (centres undefined)
> 100 µM

Give TGI for the following molecule: N#CC(C#N)=C/C=C(\Sc1c(Cl)c(Cl)nc(Cl)c1Cl)c1ccc(Cl)cc1
> 100 µM

* * *

The entries below are paired with their reported TGI.
- Test system: NCI-H522 lung
- ASSAY NOTES: NCI tumour cell line growth inhibition, 48 h
The reply should contain only the number, in nM.

- SMILES INPUT: "Nc1c2c(c(O)c3c1=C(CO)C=N3)=NCCS2"
  TGI [nM]: 430

Below: the item to evaluate.
Using known records, supply TGI for c1ccc2c(NCCCCCCNc3c4ccccc4nc4ccccc34)c3ccccc3nc2c1
1660

* * *

- Tested on: SK-OV-3 ovarian
- ASSAY NOTES: NCI tumour cell line growth inhibition, 48 h
*1 amine or outer side, *2 acyl side, *3 side chain or, on linkers, in order; H or OH if unused. Where a SMILES comes first, the peptide text is derived from it. Bridges are numbered along the chain shown (N, C = ends). Roman numbers before positions name the chains, in order. [ ]: non-standard residue; d: D form. Actinocin(9to1) = Cc1c2oc3c(C)ccc(C(=O)[*:1])c3nc-2c(C(=O)[*:2])c(N)c1=O; NMeT = CN[CH](C(=O)O)[CH](C)O; Sar = CNCC(=O)O
QUANTITY MEASURED: TGI

Use these answered entries as a reference point.
- MOLECULE: "Cc1c2oc3c(C)ccc(C(=O)NC4C(=O)NC(C(C)C)C(=O)N5CCCC5C(=O)N(C)CC(=O)N(C)C(C(C)O)C(=O)OC4C)c3nc-2c(C(=O)NC2C(=O)NC(C(C)C)C(=O)N3CCCC3C(=O)N(C)CC(=O)N(C)C(C(C)O)C(=O)OC2C)c(N)c1=O (stereo unspecified) (I: TVP[Sar][NMeT] / II: TVP[Sar][NMeT]; ester I:1-I:C, II:1-II:C; linker I:N-II:N via Actinocin(9to1); configuration not given here)"
  TARGET SYSTEM: "SK-OV-3 ovarian"
  TGI: "> 100 µM"
- MOLECULE: "CN(C)CCNC(=O)c1cccc2nc3cc(Cl)ccc3nc12"
  TARGET SYSTEM: "SK-OV-3 ovarian"
  TGI: "> 40.3 µM"
- MOLECULE: "O=C(O)c1ccc(Oc2nccc(-c3c(-c4ccc(F)cc4)ncn3C3CCNCC3)n2)cc1"
  TARGET SYSTEM: "SK-OV-3 ovarian"
  TGI: "> 25 µM"
- MOLECULE: "C=C(C#N)C1OCC2OC(C)(C)OC21 (stereo unspecified)"
  TARGET SYSTEM: "SK-OV-3 ovarian"
  TGI: "> 100 µM"
- MOLECULE: "CCOC(=O)Cc1ccc2c(c1O)C(=O)c1c(ccc(CC(=O)OCC)c1O)C2=O"
  TARGET SYSTEM: "SK-OV-3 ovarian"
  TGI: "> 100 µM"

Quote TGI reported for Cc1c(S(=O)(=O)O)ccc(N=Nc2c(O)c(C(=O)O)cc3ccccc23)c1Cl please.
> 100 µM
